biological target: PAF (Canis lupus familiaris); construct: followed by 2×10^7 dog platelets; from tissue; host or cells: washed platelets from citrate-treated dog blood; assay: PAF Radioreceptor Binding Assay; conditions: Table III; dog platelets, 3H-PAF
pIC50: −log10 of the molar value.
measurementName: pIC50

A: CCCc1c(OCC(C)CC(=O)NCCCCc2cccnc2)ccc(C(C)=O)c1O (stereo not shown)
B: CCCc1c(OCCC(C)C(=O)NCCCCc2cccnc2)ccc(C(C)=O)c1O (stereo not shown)
Query: // task: argmin of pIC50 over [ A , B ] Bench note: the answer is the label of the chosen record.
Result: B

a: CCCc1c(OCCCCCNC(=O)NCCCCc2cccnc2)ccc(C(C)=O)c1O
b: CCCc1c(OCCCC(=O)NC(C)CCCc2cccnc2)ccc(C(C)=O)c1O (stereo not shown)
Query: Field: entry with larger pIC50 (options a / b ). Bench note: the answer is the label of the chosen record.
Result: b

* * *

biological target: PAF (Canis lupus familiaris, UniProt A0A8I3NSH0); construct: followed by 2×10^7 dog platelets; from tissue; host or cells: washed platelets from citrate-treated dog blood; assay: PAF Radioreceptor Binding Assay; conditions: Table I; dog platelets, 3H-PAF
measurementName: IC50 (nM)

Some solved cases for reference:
In [3]: df
Out[3]:
                                   molecule  measurementname  endpointunit  value
0  CCCc1c(OCCCC(=O)NCCCc2cccnc2)ccc(C(C)=O)c1O [Example 12]             IC50            nM   1500
1  CCCc1c(OCCC(=O)NCCCCc2cccnc2)ccc(C(C)=O)c1O [Example 6]             IC50            nM   1000

1: CCCc1c(OCCCCCC(=O)NCCCCCCc2cccnc2)ccc(C(C)=O)c1O [Example 8]
2: CCCc1c(OCC(=O)NCCCCc2cccnc2)ccc(C(C)=O)c1O [Example 7]
3: CCCc1c(OCCCC(=O)NCCCCc2cccnc2)ccc(C(C)=O)c1O [Example 5]
4: CCCc1c(OCCCC(=O)NCCc2cccnc2)ccc(C(C)=O)c1O [Example 13]
Query: Please order the records by their reported IC50, lowest number first. Arrange the labels as the request states and list them.
Result: 3, 4, 1, 2

* * *

target: TXA2 synthase (Homo sapiens); construct: microsomal fractions from human platelets as enzyme source; from tissue; host or cells: microsomal fraction of human platelets; test: Thromboxane Synthase Inhibition, In Vitro; assay type: biochemical; conditions: Table I; at 1 μM (value in parentheses); human platelet microsomes; read-out: TXA2 Syn. Inhib. (1μM)
measurementName: inhibition at 1 µM (%)

Some solved cases for reference:
                                  smilesstr  value
0  CCCc1c(OCCC(=O)NCCCCc2cccnc2)ccc(C(C)=O)c1O     77
1  CCCc1c(OCCCCCC(=O)NCCCc2cccnc2)ccc(C(C)=O)c1O     78
2  CCCc1c(OCCCC(=O)NCCCCCCc2cccnc2)ccc(C(C)=O)c1O     83
3  CCCc1c(OCCCC(=O)NCCc2cccnc2)ccc(C(C)=O)c1O      8
4  CCCc1c(OCCCC(=O)NCCCCc2cccnc2)ccc(C(C)=O)c1O     89
5  CCCc1c(OCC(=O)NCCCCc2cccnc2)ccc(C(C)=O)c1O     81
6  CCCc1c(OCCCCCCC(=O)NCCCCc2cccnc2)ccc(C(C)=O)c1O     93

a: CCCc1c(OCCCCCC(=O)NCCCCCCc2cccnc2)ccc(C(C)=O)c1O
b: CCCc1c(OCCCC(=O)NCCCc2cccnc2)ccc(C(C)=O)c1O
c: CCCc1c(OCCCCCC(=O)NCCc2cccnc2)ccc(C(C)=O)c1O
Query: Rank order required: inhibition at 1 µM, descending. Arrange the labels as the request states and list them.
Result: a, b, c

* * *

tested on: PAF; test: PAF-Induced Guinea Pig Bronchoconstriction Test; type: in vivo, guinea pig (Hartley); conditions: 1.0 mg/kg i.v., 1 min pretreatment
measurementName: inhibition of PAF-induced bronchoconstriction (%)
Quick reminder: number only, in %, skip the unit.

Some solved cases for reference:
                                   compound  endpointunit  value
0  CCCc1c(OCCCC(=O)NCCCCc2cccnc2)ccc(C(C)=O)c1O             %     64
1  CCCc1c(OCCCCCNC(=O)NCCCCc2cccnc2)ccc(C(C)=O)c1O             %     68
2  CCCc1c(OCCCC#CC(=O)NCCCCc2cccnc2)ccc(C(C)=O)c1O             %     98
3  CCCc1c(OCc2ccc(C(=O)NCCCCc3cccnc3)c(OCC)c2)ccc(C(C)=O)c1O             %     96
4  CCCc1c(OCc2ccc(C(=O)NC(C)CCCc3cccnc3)cc2)ccc(C(C)=O)c1O (stereo not drawn)             %     85

Query: Quick one: inhibition of PAF-induced bronchoconstriction of CCCc1c(OCc2cccc(C(=O)NCCCCc3cccnc3)c2OCC)ccc(C(C)=O)c1O ?
Result: 96

* * *

biological target: TXA2 synthase (Homo sapiens, UniProt P24557); construct: microsomal fractions from human platelets as enzyme source; from tissue; host or cells: microsomal fraction of human platelets; test: Thromboxane Synthase Inhibition, In Vitro; assay type: biochemical; settings: Table II; at 1 μM (value in parentheses); human platelet microsomes; read-out: TXA2 Synth. Inhib. % at (1μM)
Sequence (P24557 whole entry): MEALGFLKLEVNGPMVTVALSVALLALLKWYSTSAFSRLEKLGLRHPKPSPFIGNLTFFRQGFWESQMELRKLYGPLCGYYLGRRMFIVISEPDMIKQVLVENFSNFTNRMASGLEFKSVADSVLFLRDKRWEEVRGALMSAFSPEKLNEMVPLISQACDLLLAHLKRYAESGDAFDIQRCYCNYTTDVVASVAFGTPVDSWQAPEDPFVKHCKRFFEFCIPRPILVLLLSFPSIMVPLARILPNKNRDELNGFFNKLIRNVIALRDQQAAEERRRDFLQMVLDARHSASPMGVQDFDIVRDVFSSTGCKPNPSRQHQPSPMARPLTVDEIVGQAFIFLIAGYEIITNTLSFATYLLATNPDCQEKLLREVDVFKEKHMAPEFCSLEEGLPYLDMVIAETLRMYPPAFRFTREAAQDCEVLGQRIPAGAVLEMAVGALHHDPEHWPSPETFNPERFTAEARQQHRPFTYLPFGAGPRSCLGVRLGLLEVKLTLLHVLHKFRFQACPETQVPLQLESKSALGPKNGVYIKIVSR
measurementName: inhibition at 1 µM (%)

Some solved cases for reference:
                                   compound     measurementname  value
0  CCCc1c(OCCCCCC(=O)NCCCCOc2cccnc2)ccc(C(C)=O)c1O  inhibition at 1 µM     93
1  CCCc1c(OCCCCCC(=O)NCCc2ccncc2)ccc(C(C)=O)c1O  inhibition at 1 µM      0
2  CCCc1c(OCCCC#CC(=O)NCCCCc2cccnc2)ccc(C(C)=O)c1O [drawing 36]  inhibition at 1 µM     88
3  CCCc1c(OCCCCCC(=O)NCCCCc2cncnc2)ccc(C(C)=O)c1O [drawing 31]  inhibition at 1 µM     66

P: CCCc1c(OCCCCCC(=O)NCCCCn2ccnc2)ccc(C(C)=O)c1O
Q: CCCc1c(OCCCCCC(=O)NCCSc2cccnc2)ccc(C(C)=O)c1O
R: CCCc1c(OCCCCCC(=O)NCCCCc2ccccn2)ccc(C(C)=O)c1O
Query: Please order the records by their reported inhibition at 1 µM, lowest number first. Arrange the labels as the request states and list them.
Result: R, Q, P
(R: 0%, Q: 35%, P: 87%)

* * *

Molecular target: PAF (Canis lupus familiaris)
Construct: followed by 2×10^7 dog platelets; from tissue; host or cells: washed platelets from citrate-treated dog blood
Sequence (A0A8I3NSH0 1-343): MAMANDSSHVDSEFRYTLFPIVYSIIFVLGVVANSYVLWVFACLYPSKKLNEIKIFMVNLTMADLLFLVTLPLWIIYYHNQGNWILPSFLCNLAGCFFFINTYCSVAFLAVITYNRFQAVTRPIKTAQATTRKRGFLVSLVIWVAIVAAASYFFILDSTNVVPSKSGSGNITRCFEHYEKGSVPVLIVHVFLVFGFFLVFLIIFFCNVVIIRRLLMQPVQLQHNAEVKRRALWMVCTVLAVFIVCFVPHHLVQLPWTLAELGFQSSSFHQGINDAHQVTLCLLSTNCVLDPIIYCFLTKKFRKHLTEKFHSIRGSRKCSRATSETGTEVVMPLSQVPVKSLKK
Test: PAF Radioreceptor Binding Assay
Details: Table I; dog platelets, 3H-PAF
measurementName: IC50 (nM)

Some solved cases for reference:
>>> print(df.to_string())
                                   compound               systemundertest  value
0  CCCc1c(OCCCCCC(=O)NCCc2cccnc2)ccc(C(C)=O)c1O [Example 10]  PAF (Canis lupus familiaris)    500
1  CCCc1c(OCCCCCCC(=O)NCCCCc2cccnc2)ccc(C(C)=O)c1O [Example 3]  PAF (Canis lupus familiaris)   1000

A: CCCc1c(OCCCCC(=O)NCCCCc2cccnc2)ccc(C(C)=O)c1O [Example 1]
B: CCCc1c(OCCCCCC(=O)NCCCc2cccnc2)ccc(C(C)=O)c1O [Example 9]
C: CCCc1c(OCCCCCC(=O)NCCCCc2cccnc2)ccc(C(C)=O)c1O.Cl [Example 4, hydrochloride]
Query: Please order the records by their reported IC50, lowest number first. Arrange the labels as the request states and list them.
Result: C, A, B

* * *

Target: PAF (Canis lupus familiaris, UniProt A0A8I3NSH0)
Construct: followed by 2×10^7 dog platelets; from tissue; host or cells: washed platelets from citrate-treated dog blood
Assay: PAF Radioreceptor Binding Assay
Conditions: Table II; dog platelets, 3H-PAF
Procedure: Platelet rich plasma is prepared by centrifugation of citrate-treated dog blood. […] After mixing, incubating for 10 minutes at room temperature, and centrifuging for 1 minute in a Beckman Microfuge B (8000 xg), the pellet is removed by clipping off the tip of the tube, the platelets are solubilized with 200 μl of 50% methanol, and counted in 10 ml of Aquasol. […]
measurementName: IC50 (nM)

Some solved cases for reference:
>>> print(df.to_string())
                                   compound  value
0  CCCc1c(OCCCCCC(=O)NCCSc2cccnc2)ccc(C(C)=O)c1O   1000
1  CCCc1c(OCCCCCC(=O)NCCCCc2cncnc2)ccc(C(C)=O)c1O [drawing 31]    550

1: CCCc1c(OCCCCCC(=O)NCCCCn2ccnc2)ccc(C(C)=O)c1O
2: CCCc1c(OCCCCCC(=O)NCCc2ccncc2)ccc(C(C)=O)c1O
3: CCCc1c(OCCCC#CC(=O)NCCCCc2cccnc2)ccc(C(C)=O)c1O [drawing 36]
Query: Please order the records by their reported IC50, lowest number first. Arrange the labels as the request states and list them.
Result: 3, 1, 2
(3: 500 nM, 1: 1000 nM, 2: 1750 nM)
